Data provenance is PubChem BioAssay (NCI).

Tested on: A549 NSCLC
testName: NCI tumour cell line growth inhibition, 48 h
propertyLabel: TGI

> print(dat)
                                    compound  propertylabel  reportedvalue
 1  COc1ccc(N2C(=O)C(=O)N(c3ccc(N=Nc4ccccc4)cc3)C2=S)cc1            TGI        41.2 µM
 2          O=C(CBr)c1ccc2cc(Br)c3ccccc3c2c1            TGI        76.7 µM
 3              Cc1ccc(CSC(N)=Nc2ccccc2)cc1C            TGI       > 100 µM
 4      Cc1cc(C)nc(NC(P(=O)(O)O)P(=O)(O)O)n1            TGI       > 100 µM
 5  N[C@H](Cc1ccc2oc3cc(=O)c4ccccc4c-3nc2c1)C(=O)O            TGI       > 100 µM
 6  C[Si](C)(C)CN1C(=O)c2ccccc2C1(O)c1ccccc1 (stereo not drawn)            TGI       > 100 µM
 7  NC(CCc1ncc(C(=O)O)s1)C(=O)O (stereo not drawn)            TGI       > 100 µM
 8                        NCCCNCCCCN1CCOC1=O            TGI       > 100 µM
 9  COc1cc(OC)c2sc(-c3ccc(-n4cncc4-c4cc(OC)c(OC)c(OC)c4)cc3)nc2c1            TGI       > 100 µM
10  COc1cc2c(cc1OC)C1Cc3cc(OC)c(OC)cc3N1CC2 (stereo not drawn)            TGI        79.9 µM
11           c1ccc2c(c1)OCCOCCOc1ccccc1OCCO2            TGI       > 100 µM
12        O=Cc1ccc(-c2ccc(-c3ccc(CO)s3)o2)s1            TGI        98.8 µM
13               COc1ccc(/C=C/c2cnccn2)cc1OC            TGI        > 10 µM
14  COc1ccc(-c2cc(Nc3ccnc(N4CCOCC4)n3)on2)cc1            TGI        12.1 µM
15  Cc1ccc2c(c1)CC1(Cc3cccc(C)c3C1=O)C2=O (stereo not drawn)            TGI       > 100 µM
16  Cc1[nH]n(-c2nc(O)c(-c3ccccc3)c(=O)[nH]2)c(=O)c1CCO            TGI       > 100 µM
17  CCCCC1C=Cn2c(=O)oc3c(OC(C)C)c(C)c(O)c1c32 (stereo not drawn)            TGI        6.97 µM
18  COc1ccc(C2(CC(C)C)CCN(S(=O)(=O)c3ccc(C)cc3)C2)cc1OC (stereo not drawn)            TGI       > 100 µM

* * *

System: SNB-75 CNS
testName: NCI tumour cell line growth inhibition, 48 h
propertyLabel: TGI

> print(dat)
                                    compound  studysystem  reportedvalue
 1    NCCCn1c2c(c3ccccc3c1=O)C(=O)c1ccccc1-2   SNB-75 CNS        3.71 µM
 2  CCOC(=O)c1c(OCC)[nH]c(=O)c(C(c2cccs2)c2c(O)c(C(=O)OCC)c(OCC)[nH]c2=O)c1O   SNB-75 CNS        9.72 µM
 3               COc1ccc(/C=C/c2cnccn2)cc1OC   SNB-75 CNS        > 10 µM
 4  CNC(C)[C@H]1CCC2C3CC=C4C(=O)[C@@H](NC(=O)C=C(C)C)CC[C@]4(C)C3CC[C@@]21C (stereo not given in full)   SNB-75 CNS        10.4 µM
 5           c1ccc2c(c1)OCCOCCOc1ccccc1OCCO2   SNB-75 CNS       > 100 µM
 6  CC1CC(Nc2ccc(Br)cc2)N(C(=O)c2ccc(Br)cc2)O1 (stereo not given)   SNB-75 CNS        > 10 µM
 7  C[n+]1c2ccccc2c(NC(CCCN=C(N)N)C(=O)O)c2ccccc21 (stereo not given)   SNB-75 CNS       > 100 µM
 8  CN1C(NNC(=O)c2cccnc2)=NS(=O)(=O)c2cc(Cl)ccc21   SNB-75 CNS       > 100 µM
 9  NC1(CCNC(=O)c2ccccc2)CCN(C(=O)c2ccccc2)CC1   SNB-75 CNS       > 100 µM
10  O=C1C=CC(=CC=C2C=CN(CCCCCCCCCCC(=O)NCCCCCCCCCCCC(=O)O)C=C2)C=C1   SNB-75 CNS       > 100 µM

* * *

System: KM12 colon
testName: NCI tumour cell line growth inhibition, 48 h
# key: entry, value: GI50
propertyLabel: GI50

> print(dat)
                                    compound  propertylabel  reportedvalue
 1  C=CCn1c(SCC(=O)Nc2ccc(C(=O)/C=C/c3cc(OC)c(OC)c(OC)c3)cc2)nnc1-c1ccc(OC)cc1           GI50         315 nM
 2  NC(=O)CNc1ccc([As]=[As]c2ccc(NCC(N)=O)cc2)cc1 (stereo not given)           GI50       13700 nM
 3  NCCN.O=C([O-])[O-].O=C([O-])[O-].[Co+3].[K+]           GI50    > 100000 nM
 4  O=C(NC1CCCCC1)c1ccc(Nc2ncnc3c2cnn3-c2ccccc2)cc1           GI50       57800 nM
 5  CNCCn1c(=O)c2cc(OC)c(OC)cc2c2cnc3cc4c(cc3c21)OCO4           GI50        48.3 nM
 6  Cc1cc(NCCCCNc2ccnc3cc(Cl)ccc23)nc(Nc2ccc(C(=O)N3CCCCC3)cc2)n1           GI50        1910 nM
 7  CN(C)CCNc1nc2ccccc2c2c(=O)c3cc(F)ccc3sc12           GI50        1930 nM
 8     O=C(NNc1cnccn1)c1nc2cc(F)ccc2n2cccc12           GI50         509 nM
 9           N#CC(C#N)=C1CCCOc2c1ccc1ccccc21           GI50    > 100000 nM
10  Cc1noc2c1-c1ccccc1C(c1ccc(Cl)cc1)=N[C@H]2CC(N)=O           GI50       12100 nM

* * *

Test system: SNB-75 CNS
testName: NCI tumour cell line growth inhibition, 48 h
propertyLabel: TGI

> print(dat)
                                    compound  reportedvalue
 1  CC(=O)OCCOCNC(=S)N/N=C/c1ccc([N+](=O)[O-])s1       > 100 µM
 2  COc1ccc(N2C(=O)C(=O)N(c3ccc(N=Nc4ccccc4)cc3)C2=S)cc1        55.5 µM
 3  CC(=O)OC(CCC1(C)OC1COc1ccc(CCNC(=O)C=C(C)C)cc1)C(C)(C)OC(C)=O (stereo not given)        98.1 µM
 4  c1ccc2c3[nH]c(c2c1)=Nc1ccc(cc1)-c1nc2ccc(cc2o1)N=c1[nH]c(c2ccccc12)=Nc1ccc2nc(oc2c1)-c1ccc(cc1)N=3       > 100 µM
 5  N[C@H](Cc1ccc2oc3cc(=O)c4ccccc4c-3nc2c1)C(=O)O       > 100 µM
 6  Cc1noc2c1-c1ccccc1C(c1ccc(Cl)cc1)=N[C@H]2CC(N)=O       > 100 µM
 7  CCOC(=O)C1=C(N)Oc2c(sc3c(C)cccc23)C1c1ccc(F)cc1 (stereo not given)        11.7 µM
 8             Cc1ccc2c(c1-c1ccccc1)C(=O)OC2       > 100 µM
 9  COc1cc(Nc2nc3cc(C(F)(F)F)ccc3nc2C(=O)O)cc(OC)c1OC       > 100 µM
10   O=c1[nH]c2nc3ccccc3c(=O)n2/c1=C/c1cccs1       > 100 µM

* * *

System: PC-3 prostate
testName: NCI tumour cell line growth inhibition, 48 h
# key: entry, value: GI50

compound	GI50
CC(=O)c1ccc2c(c1)C(=O)c1sc(C(C)=O)cc1C2=O	2550 nM
COc1ccc(-c2noc(N)c2-c2cc(OC)c3c(c2)OCO3)cc1	3360 nM
COc1cc(/C=C/C(=O)C(C(=O)/C=C/c2ccc(OC(=O)CCNC34CC5CC(CC(C5)C3)C4)c(OC)c2)C(=O)CCNC23CC4CC(CC(C4)C2)C3)ccc1OC(=O)CCNC12CC3CC(CC(C3)C1)C2 (stereo not given)	3860 nM
NCCCOc1cc(Cl)ccc1NC(=O)c1cc2ccccc2cc1OCCCN	1410 nM
Cn1cc(-c2csc(-c3cn(C)c4ccc(F)cc34)n2)c2cnccc21	1710 nM
